TARGET OR TEST SYSTEM: hepatic lipase (HL) (Homo sapiens (Human), UniProt P11150)
Sequence (P11150 23-499, species assumed): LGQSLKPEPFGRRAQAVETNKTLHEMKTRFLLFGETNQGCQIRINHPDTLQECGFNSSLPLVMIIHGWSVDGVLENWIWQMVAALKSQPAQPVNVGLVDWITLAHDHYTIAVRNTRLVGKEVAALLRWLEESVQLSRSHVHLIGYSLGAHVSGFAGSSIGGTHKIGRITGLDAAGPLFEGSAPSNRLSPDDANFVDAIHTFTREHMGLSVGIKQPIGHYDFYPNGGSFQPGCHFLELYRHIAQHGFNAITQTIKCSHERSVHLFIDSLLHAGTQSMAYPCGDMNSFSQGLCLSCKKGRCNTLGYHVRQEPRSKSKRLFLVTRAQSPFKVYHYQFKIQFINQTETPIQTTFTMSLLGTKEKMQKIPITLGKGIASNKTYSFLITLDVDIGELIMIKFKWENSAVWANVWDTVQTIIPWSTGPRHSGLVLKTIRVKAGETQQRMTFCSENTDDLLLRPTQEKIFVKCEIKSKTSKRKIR
ASSAY COMMENT: HL assay: hepatic lipase activity with fluorescent substrate A10070 in DMPG vesicles
Format: biochemical
EXPERIMENTAL READOUT: log10 of IC50 (log10 of the value in nM)
Units before log transform: nM; reported quantity: IC50; transform: log10.

// known answers, use as guide
Cc1cc2nc(C(C(=O)NCCS(N)(=O)=O)S(=O)(=O)Cc3ccccc3)sc2cc1-c1ccc(C(=O)N2CCCCC2)cc1 (stereo not drawn) :: 1.57
Cc1nnc(CNC(=O)C(c2nc3cc(F)c(-c4ccccc4)cc3s2)S(=O)(=O)Cc2ccccc2)o1 (stereo not drawn) :: 1.59
CC(C)(O)Cn1ccc(-c2ccc3nc(C(C(=O)NCCS(N)(=O)=O)S(=O)(=O)Cc4ccc(F)cc4)sc3c2)cc1=O (stereo not drawn) :: 4.00
COCCS(=O)(=O)C(C(=O)NCCS(N)(=O)=O)c1nc2ccc(-c3ccc(C(=O)N4CC[C@H](OC)C4)cc3)cc2s1 (stereo partly drawn) :: 2.17
NS(=O)(=O)c1cccc(CNC(=O)C(c2nc3ccc(-c4ccncc4Cl)cc3s2)S(=O)(=O)Cc2ccccc2)c1 (stereo not drawn) :: 2.55

Query: What is its log10 of IC50 for hepatic lipase (HL) (Homo sapiens (Human), UniProt P11150)? Entry: COc1ccc(-c2ccc3sc(C(C(=O)NCCS(N)(=O)=O)S(C)(=O)=O)nc3c2)cn1 (stereo not drawn)
Result: 0.41

---

# IC50 listing for each entry below
TARGET OR TEST SYSTEM: UniProt:Q9Y5X9
ASSAY COMMENT: EL assay: endothelial lipase activity with fluorescent substrate A10070 in DMPG vesicles
Format: biochemical
ASSAY CONTEXT: EL from conditioned media of HT-1080 cells; 30 min incubation with compound at 37° C.; A10070/DMPG vesicles
Procedure: Endothelial lipase (EL) and hepatic lipase (HL) activities were measured using a fluorescent substrate, A10070, (Invitrogen, CA) doped into an artificial vesicle containing DMPG (Avanti Polar Lipids) as the excipient. […] The enzymatic assay was measured using 384-well white Optiplates. […] The reaction rates were measured on a Gemini plate reader with an excitation wavelength of 490 nm and an emission wavelength of 530 nm. […]

Consider the reported IC50 for these compounds:
NS(=O)(=O)CCNC(=O)C(c1nc2ccc(-c3ccc(F)nc3)cc2s1)S(=O)(=O)CCC(F)(F)F (stereo not shown) [Example B7] :: < 10 nM
NS(=O)(=O)CCNC(=O)C(c1nc2ccc(-c3ccc(C(=O)N4CCOCC4)cc3)cc2s1)S(=O)(=O)CCN1CCOCC1 (stereo not shown) [Example B157] :: < 10 nM
NS(=O)(=O)CCNC(=O)C(NC(=O)C(F)F)c1nc2ccc(-c3ccc(F)nc3)cc2s1 (stereo not shown) [Example A4] :: < 10 nM

Here's the next entry for you.
Query: Which IC50 is reported with UniProt:Q9Y5X9 for this entry: COC(=O)Nc1ccc(-c2ccc3nc(C(C(=O)NCCS(N)(=O)=O)S(C)(=O)=O)sc3c2)cc1 (stereo not shown) [Example B22] ?
Result: < 10 nM

---

TARGET OR TEST SYSTEM: Endothelial lipase (EL) (Homo sapiens (Human), UniProt Q9Y5X9)
Sequence (Q9Y5X9 21-500): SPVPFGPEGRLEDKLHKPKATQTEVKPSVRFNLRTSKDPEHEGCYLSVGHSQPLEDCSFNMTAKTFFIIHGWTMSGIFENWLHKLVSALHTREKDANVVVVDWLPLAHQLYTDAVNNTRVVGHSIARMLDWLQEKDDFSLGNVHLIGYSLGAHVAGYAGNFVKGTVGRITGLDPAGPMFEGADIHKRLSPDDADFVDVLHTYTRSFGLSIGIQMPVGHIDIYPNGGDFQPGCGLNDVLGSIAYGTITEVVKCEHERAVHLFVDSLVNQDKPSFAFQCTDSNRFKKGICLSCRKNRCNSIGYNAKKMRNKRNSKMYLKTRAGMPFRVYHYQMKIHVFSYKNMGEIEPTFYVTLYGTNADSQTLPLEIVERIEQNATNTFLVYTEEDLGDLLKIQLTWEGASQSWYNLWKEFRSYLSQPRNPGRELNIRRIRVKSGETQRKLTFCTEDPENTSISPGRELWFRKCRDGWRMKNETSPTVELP
ASSAY COMMENT: EL assay: endothelial lipase activity with fluorescent substrate A10070 in DMPG vesicles
Format: biochemical
pIC50: −log10 of the molar value.
EXPERIMENTAL READOUT: pIC50

CS(=O)(=O)C(C(=O)NCCS(N)(=O)=O)c1nc2ccc(-c3ccc(C(=O)NCC(F)(F)F)cc3)cc2s1 (stereo not drawn) [Example B41] :: > 8.00
COCCS(=O)(=O)C(C(=O)NCCS(N)(=O)=O)c1nc2ccc(-c3ccc(C(=O)N4CCOCC4)cc3)cc2s1 (stereo not drawn) [Example B100] :: > 8.00

Continue with the compound presented below.
Query: Item under review: CS(=O)(=O)C(C(=O)NCCS(N)(=O)=O)c1nc2ccc(-c3ccc(C(=O)N4CCC(F)(F)CC4)cc3)cc2s1 (stereo not drawn) [Example B171] . Reported pIC50?
Result: > 8.00
